Assay: Maximum concentration in plasma after administration of 2 umol/kg dose intravenously
Type: ADME, organism-based
Design: dose 2 umol/kg, route intravenous
Conditions: iv
Give measured Cmax for each item. Keep answers brief.
Give the value, in units of nM, as a plain number.

In: Fill blank: measured Cmax of the compound `CCCN(CCC)[C@@H]1CCc2ccc3[nH]cc(C=O)c3c2C1` is ____.
Out: 712

In: Please look up its Cmax: `CCCN(CCC)[C@H]1CCc2ccc3[nH]cc(C=O)c3c2C1`
Out: 849

###

Test: Half life in plasma after administration of 2 umol/kg dose perorally
Format: ADME, organism-based
Settings: po
metric.name: half-life
A complete answer gives the number and then names the unit.

In: Quick check: half-life of `CCCN(CCC)[C@@H]1CCc2ccc3[nH]cc(C=O)c3c2C1` ?
Out: 1.5 h

###

Experiment: Time taken to reach maximum concentration after administration of 2 umol/kg dose intravenously
Format: ADME, organism-based
Conditions: in vivo, iv
metric.name: Tmax (min)
Field format: number, assumed min, no unit text.

In: Value lookup for Tmax; key = `CCCN(CCC)[C@@H]1CCc2ccc3[nH]cc(C=O)c3c2C1`
Out: 2

In: What Tmax value was documented for this compound, `CCCN(CCC)[C@H]1CCc2ccc3[nH]cc(C=O)c3c2C1` ?
Out: 2

###

Test system: Rattus norvegicus
Test: The concentration yielding a half maximal decrease of the 5-HTP was determined in rat limbic system; inactive at 50 umol/kg
Type: functional, organism-based
The source made the active and inactive calls. The calls are words filed in the database; no cut-off is given here.
metric.name: ED50

Sample records with ED50:
[
  {
    "compound": "CCCN(CCC)C1CCc2ccc3c(CC(F)(F)F)c[nH]c3c2C1 (stereo unspecified)",
    "endpoint.result": "inactive"
  },
  {
    "compound": "CCCN(CCC)C1CCc2ccc3c(c2C1)N(C=O)CC3 (stereo unspecified)",
    "endpoint.result": "inactive"
  },
  {
    "compound": "CCCN(CCC)C1CCc2ccc3[nH]cc(CC(F)(F)F)c3c2C1 (stereo unspecified)",
    "endpoint.result": "inactive"
  },
  {
    "compound": "CCCN(CCC)C1CCc2ccc3c(C=O)c[nH]c3c2C1 (stereo unspecified)",
    "endpoint.result": "inactive"
  }
]

In: Bench note: what ED50 did CCCN(CCC)C1CCc2ccc3cc[nH]c3c2C1 (stereo unspecified) show?
Out: inactive

In: Bench note: what ED50 did CCCN(CCC)C1CCc2ccc3c(c2C1)NCC3 (stereo unspecified) show?
Out: inactive

###

Molecular target: D(2) dopamine receptor (Rattus norvegicus, UniProt P61169)
Sequence (P61169 whole entry): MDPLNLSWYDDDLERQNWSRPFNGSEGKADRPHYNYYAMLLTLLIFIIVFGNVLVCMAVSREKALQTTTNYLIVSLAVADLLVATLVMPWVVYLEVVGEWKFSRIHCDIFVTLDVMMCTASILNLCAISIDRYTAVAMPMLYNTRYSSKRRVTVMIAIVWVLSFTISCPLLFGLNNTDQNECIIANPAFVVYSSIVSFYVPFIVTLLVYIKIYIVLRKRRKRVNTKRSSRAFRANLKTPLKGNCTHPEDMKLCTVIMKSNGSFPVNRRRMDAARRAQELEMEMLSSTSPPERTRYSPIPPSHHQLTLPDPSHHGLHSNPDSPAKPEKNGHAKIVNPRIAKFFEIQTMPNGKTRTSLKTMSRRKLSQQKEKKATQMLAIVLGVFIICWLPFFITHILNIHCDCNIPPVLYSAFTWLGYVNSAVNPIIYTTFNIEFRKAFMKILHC
Experiment: Displacement of the radioligand [3H]spiperone from D2 receptor
metric.name: pKi
The scale used: pKi is minus the common logarithm of the concentration in molar units.

In: # lookup: pKi of `CCCN(CCC)[C@H]1CCc2ccc3[nH]cc(C=O)c3c2C1`
Out: 5.44

In: Which measured pKi value corresponds to CCCN(CCC)C1CCc2ccc3[nH]cc(CC(F)(F)F)c3c2C1 (stereo unspecified) ?
Out: 6.10

In: Query (molecule): CCCN(CCC)C1CCc2ccc3c(c2C1)NCC3 (stereo unspecified) ; field requested: pKi
Out: 6.19

In: Entry `CCCN(CCC)[C@@H]1CCc2ccc3[nH]cc(C#N)c3c2C1` : reported pKi = ?
Out: 6.38

In: Quick one: pKi of CCCN(CCC)C1CCc2ccc3cc[nH]c3c2C1 (stereo unspecified) ?
Out: 6.84
